Target: FPRL-1 (Homo sapiens)
Assay: compound-induced calcium activity on FLIPR Tetra in CHO-Gα16 cells stably expressing FPRL1
Settings: tested 0.61 to 10,000 nM, read-out: FPRL-1 Ga16-CHO EC50
The entries below are paired with their reported pEC50.
Convention used: pEC50 is expressed as -log10 of the molar concentration.

// known answers, use as guide
| molecule | property measured | readout value |
| --- | --- | --- |
| CCC[C@H](NC(=O)Nc1ccc(Br)cc1F)C(=O)NCC(C)=O | pEC50 | 7.04 |
| CC(C)C[C@@H](NC(=O)Nc1ccc(Br)cc1)C(=O)NCC(=O)OC(C)(C)C | pEC50 | 5.44 |

Given `CC(C)C[C@@H](NC(=O)Nc1ccc(Br)cc1F)C(=O)NCC(=O)O` , state its recorded pEC50.
5.83

Given O=C(O)CNC(=O)C(Cc1c[nH]cn1)NC(=O)Nc1ccc(Br)cc1 (centres unmarked) , state its recorded pEC50.
8.00

Given `CCC[C@H](NC(=O)Nc1ccc(Br)cc1)C(=O)NCC(=O)OC(C)C` , state its recorded pEC50.
7.85

====

Target: FPRL-1 (Homo sapiens, UniProt P25090)
Experiment: compound-induced calcium activity on FLIPR Tetra in CHO-Gα16 cells stably expressing FPRL1
Conditions: tested 0.61 to 10,000 nM, read-out: FPRL-1 Ga16-CHO EC50
property measured: EC50 (nM)
# output: bare number, implied unit nM

// known answers, use as guide
| compound | target desc | unit abbrev | readout value |
| --- | --- | --- | --- |
| CC(C)C[C@H](NC(=O)Nc1ccc(Br)cc1F)C(=O)N[C@@H](C)C(N)=O [Compound 40] | FPRL-1 (Homo sapiens, UniProt P25090) | nM | 31 |
| NC(=O)CC(NC(=O)Nc1ccc(Br)cc1)C(=O)NCC(=O)O (stereo not drawn) | FPRL-1 (Homo sapiens, UniProt P25090) | nM | 2940 |

Next compound, please.
Given CSCC[C@H](NC(=O)Nc1ccc(Br)cc1)C(=O)NCC(=O)OC(C)(C)C [Compound 80] , state its recorded EC50.
127

====

The entries below are paired with their reported pEC50.
Biological target: FPRL-1 (Homo sapiens, UniProt P25090)
Sequence (P25090 1-351): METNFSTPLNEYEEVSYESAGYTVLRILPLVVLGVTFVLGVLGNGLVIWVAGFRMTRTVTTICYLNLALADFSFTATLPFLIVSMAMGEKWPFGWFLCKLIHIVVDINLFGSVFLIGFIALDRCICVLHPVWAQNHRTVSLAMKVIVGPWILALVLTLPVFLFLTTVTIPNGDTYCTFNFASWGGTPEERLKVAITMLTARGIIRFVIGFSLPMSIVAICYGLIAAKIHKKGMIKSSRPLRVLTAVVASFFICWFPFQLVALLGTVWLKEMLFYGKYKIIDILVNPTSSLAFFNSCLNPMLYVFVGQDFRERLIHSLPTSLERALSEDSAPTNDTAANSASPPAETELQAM
Assay: compound-induced calcium activity on FLIPR Tetra in CHO-Gα16 cells stably expressing FPRL1
Conditions: tested 0.61 to 10,000 nM, read-out: FPRL-1 Ga16-CHO EC50
Procedure: CHO-Gα16 cells stably expressing FPRL1 were cultured in (F12, 10% FBS, 1% PSA, 400 μg/ml geneticin and 50 μg/ml hygromycin) and HEK-Gqi5 cells stable expressing FPR1 were cultured in (DMEM high glucose, 10% FBS, 1% PSA, 400 μg/ml geneticin and 50 μg/ml hygromycin). In general, the day before the experiment, 18,000 cells/well were plated in a 384-well clear bottom poly-d-lysine coated plate. […] Results are expressed as EC50 (nM) and efficacy values.
Convention used: pEC50 is expressed as -log10 of the molar concentration.

// known answers, use as guide
| chem smiles | target desc | property measured | readout value |
| --- | --- | --- | --- |
| CC(C)C[C@H](NC(=O)Nc1ccc(Br)cc1F)C(=O)NCC(=O)O | FPRL-1 (Homo sapiens, UniProt P25090) | pEC50 | 8.44 |
| CC(C)C[C@H](NC(=O)Nc1ccc(Br)cc1)C(=O)NCCO | FPRL-1 (Homo sapiens, UniProt P25090) | pEC50 | 7.96 |
| CSc1ccc(NC(=O)N[C@@H](CC(C)C)C(=O)NCC(=O)O)cc1 | FPRL-1 (Homo sapiens, UniProt P25090) | pEC50 | 8.53 |
| CC(C)C[C@H](NC(=O)Nc1ccc(SC(F)(F)F)cc1)C(=O)NCC(=O)O | FPRL-1 (Homo sapiens, UniProt P25090) | pEC50 | 6.25 |

Given `CS(=O)(=O)CC[C@H](NC(=O)Nc1ccc(Br)cc1)C(=O)NCC(=O)O` , state its recorded pEC50.
6.61

Given `CC(C)(C)OC(=O)CNC(=O)C(C)(C)NC(=O)Nc1ccc(Br)cc1` , state its recorded pEC50.
6.94

Given `CSc1ccc(NC(=O)N[C@@H](CC(C)C)C(=O)NCC(=O)OC(C)(C)C)cc1` , state its recorded pEC50.
6.94

Given `CC(C)C[C@H](NC(=O)Nc1ccc(Br)cc1F)C(=O)NCC(=O)OC(C)(C)C` , state its recorded pEC50.
6.87

Given `CC(C)C[C@H](NC(=O)Nc1ccc(Br)cc1F)C(=O)NCCO` , state its recorded pEC50.
7.11

Given `CC(C)C[C@H](NC(=O)Nc1ccc(S(C)(=O)=O)cc1)C(=O)NCC(=O)OC(C)(C)C` , state its recorded pEC50.
5.97

Given `CC(C)C[C@H](NC(=O)Nc1ccc(C(F)(F)F)cc1)C(=O)NCC(=O)OC(C)(C)C` , state its recorded pEC50.
6.51

Given `CC(C)(C)OC(=O)CNC(=O)[C@H](CCS(C)(=O)=O)NC(=O)Nc1ccc(Br)cc1` , state its recorded pEC50.
5.91

Given `CC[C@H](C)[C@H](NC(=O)Nc1ccc(Br)cc1F)C(=O)NCC(N)=O` , state its recorded pEC50.
8.00

Given `CCC[C@H](NC(=O)Nc1ccc(Br)cc1)C(=O)NCC(C)=O` , state its recorded pEC50.
7.46

Given `CC[C@H](C)[C@H](NC(=O)Nc1ccc(Br)cc1)C(=O)NCC(C)=O` , state its recorded pEC50.
8.00

Given `CC(C)C[C@H](NC(=O)Nc1ccc(Br)cc1)C(=O)N[C@H](C(=O)OC(C)(C)C)c1ccccc1` , state its recorded pEC50.
6.91

Given `CSCC[C@H](NC(=O)Nc1ccc(Br)cc1)C(=O)NCC(=O)O` , state its recorded pEC50.
8.15

====

The entries below are paired with their reported pEC50.
Target: FPRL-1 (Homo sapiens, UniProt P25090)
Assay: compound-induced calcium activity on FLIPR Tetra in CHO-Gα16 cells stably expressing FPRL1
Conditions: tested 0.61 to 10,000 nM, read-out: FPRL-1 Ga16-CHO EC50
Convention used: pEC50 is expressed as -log10 of the molar concentration.

// known answers, use as guide
| molecule | property measured | readout value |
| --- | --- | --- |
| CC(C)(C)OC(=O)CNC(=O)[C@H](Cc1c[nH]c2ccccc12)NC(=O)Nc1ccc(Br)cc1 (stereo in doubt) [Compound 90] | pEC50 | 6.52 |
| CC(C)C[C@H](NC(=O)Nc1ccc(Br)cc1F)C(=O)N[C@@H](C)C(=O)O [Compound 39] | pEC50 | 7.92 |

Given CC(C)C[C@H](NC(=O)Nc1ccc(Br)cc1)C(=O)NCC(=O)N(C)C [Compound 61] , state its recorded pEC50.
8.85

Given O=C(Nc1ccc(Br)cc1F)N[C@@H](Cc1ccccc1)C(=O)NCCO [Compound 19] , state its recorded pEC50.
7.80

Given `CCC[C@H](NC(=O)Nc1ccc(Br)cc1F)C(=O)NCC(=O)O` , state its recorded pEC50.
8.32
